- System: 429239-143-T-J1-PDC complex spheroid viability;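 note: luminescence signal used as surrogate measure of viable cells; spheroids exposed to compounds for seven days before readout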
- assay-overview: Anticancer human tumor 429239-143-T-J1-PDC patient-derived small cell lung carcinoma cell line growth inhibition [POLQ]
- experimental-conditions: second compound 0.316 µM; first compound 0.1 µM; stronger effect = lower value
Please note: viability, T/C exactly at 90% is F. Only values below 90% get T.

{"compound": "CC(C)n1c(=O)n(C)c2cnc3cc(F)c(-c4ccc(OCCCN5CCCCC5)nc4)cc3c21 + Nc1ccc(C#CCN(C(=O)Cc2ncc(C(F)(F)F)cc2C(F)(F)F)c2ccc(F)cc2)nn1", "discrete-label": "F"}
{"compound": "COc1cccc2c1C(=O)c1c(O)c3c(c(O)c1C2=O)CC(O)(C(=O)CO)CC3OC1CC(N)C(O)C(C)O1 (stereo not given) + COC1C(OC(N)=O)C(O)C(Oc2ccc3c(O)c(NC(=O)c4ccc(O)c(CC=C(C)C)c4)c(=O)oc3c2C)OC1(C)C", "discrete-label": "T"}
{"compound": "Nc1ccn(C2OC(CO)C(O)C2(F)F)c(=O)n1 (stereo not given) + Nc1ccc(C#CCN(C(=O)Cc2ncc(C(F)(F)F)cc2C(F)(F)F)c2ccc(F)cc2)nn1", "discrete-label": "T"}
{"compound": "CCCS(=O)(=O)Nc1ccc(F)c(C(=O)c2c[nH]c3ncc(-c4ccc(Cl)cc4)cc23)c1F + Cc1cccc(N(C)C(=O)C2C(O)CCN2c2nc(C)cc(C(F)(F)F)c2C#N)c1", "discrete-label": "F"}

We next turn to a different compound, shown below.
Qu. Hi there! Is viability, T/C for O=C(Nc1ccc(O)c(NS(=O)(=O)c2ccc(F)cc2)c1)c1ccc(-c2ccccc2)cc1 + Cc1cccc(N(C)C(=O)C2C(O)CCN2c2nc(C)cc(C(F)(F)F)c2C#N)c1 below 90%, do you know?
Ans. F
